Hi, quick share: literature IC50 data for Cytochrome P450 11B1, mitochondrial (Rattus norvegicus), several sources combined.
# TESTED ON: Cytochrome P450 11B1, mitochondrial (Rattus norvegicus)
# Sequence (P15393 whole entry): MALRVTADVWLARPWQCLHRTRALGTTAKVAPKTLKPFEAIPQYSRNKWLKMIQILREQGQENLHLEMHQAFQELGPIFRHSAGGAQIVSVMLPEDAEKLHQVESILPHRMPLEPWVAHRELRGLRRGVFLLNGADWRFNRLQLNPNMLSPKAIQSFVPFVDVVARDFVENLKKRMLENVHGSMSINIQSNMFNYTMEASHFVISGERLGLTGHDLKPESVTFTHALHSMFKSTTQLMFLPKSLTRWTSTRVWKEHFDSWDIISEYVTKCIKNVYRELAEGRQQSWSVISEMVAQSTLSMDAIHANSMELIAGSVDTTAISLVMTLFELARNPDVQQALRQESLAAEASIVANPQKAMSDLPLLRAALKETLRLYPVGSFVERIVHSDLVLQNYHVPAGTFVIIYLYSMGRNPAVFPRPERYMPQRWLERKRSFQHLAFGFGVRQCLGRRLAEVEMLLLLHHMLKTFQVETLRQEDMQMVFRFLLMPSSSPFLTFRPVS
Answer with a number only, understood to be in µM.

See these solved cases before continuing.
O=[N+]([O-])c1ccc(-c2cccnc2)c(OCc2ccccc2)c1
1.49
O=[N+]([O-])c1ccc(-c2ccncc2)c(OCCc2ccccc2)c1
0.163
Cc1c(Cn2ccnc2)oc2ccc(C(=O)O)cc12
100
CCn1cc(Cn2ccnc2)c2ccccc21
10
O=[N+]([O-])c1ccc(-c2ccncc2)c(OCc2ccccc2)c1
0.648

Kindly review the next compound as well.
### Prompt Request the reported IC50 associated with c1ccc2c(Cn3ccnc3)c[nH]c2c1
### Response 10

---

# TESTED ON: UniProt P15393
# Sequence (P15393 whole entry): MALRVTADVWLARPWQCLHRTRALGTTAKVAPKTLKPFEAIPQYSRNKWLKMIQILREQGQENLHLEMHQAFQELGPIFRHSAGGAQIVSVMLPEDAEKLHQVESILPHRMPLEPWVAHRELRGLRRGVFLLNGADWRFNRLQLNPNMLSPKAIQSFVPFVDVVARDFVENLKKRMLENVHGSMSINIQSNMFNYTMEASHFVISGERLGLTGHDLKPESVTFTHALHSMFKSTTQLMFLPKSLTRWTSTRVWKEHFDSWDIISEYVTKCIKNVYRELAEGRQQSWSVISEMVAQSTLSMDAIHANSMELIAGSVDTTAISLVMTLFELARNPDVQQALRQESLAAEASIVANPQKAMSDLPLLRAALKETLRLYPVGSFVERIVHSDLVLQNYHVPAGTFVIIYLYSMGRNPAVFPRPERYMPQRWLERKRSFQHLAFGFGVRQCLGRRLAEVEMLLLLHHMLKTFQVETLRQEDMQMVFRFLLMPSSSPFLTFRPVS
Hi, quick share: literature IC50 data for UniProt P15393, several sources combined.

O=C(O)c1ccc(OCCn2ccnc2)cc1
> 100 µM
Cc1c(Cn2ccnc2)sc2ccc(C(=O)O)cc12
> 100 µM
O=C(O)c1ccc2oc(Cn3ccnc3)c(Cl)c2c1
> 100 µM

### Prompt Value wanted: IC50 (UniProt P15393) of entry Cc1c(Cn2ccnc2)c2ccccc2n1CCC(=O)O
### Response > 100 µM

### Prompt Value wanted: IC50 (UniProt P15393) of entry O=C(O)COc1ccc(OCCn2ccnc2)cc1
### Response > 100 µM

### Prompt Value wanted: IC50 (UniProt P15393) of entry CC(C)c1c(Cn2ccnc2)c2ccccc2n1CCC(=O)O
### Response > 10 µM
